- assay.target: P. falciparum apicoplast DNA polymerase (Pf-apPOL) (Plasmodium falciparum, UniProt Q8ILY1)
- Sequence (Q8ILY1 entry or part of it): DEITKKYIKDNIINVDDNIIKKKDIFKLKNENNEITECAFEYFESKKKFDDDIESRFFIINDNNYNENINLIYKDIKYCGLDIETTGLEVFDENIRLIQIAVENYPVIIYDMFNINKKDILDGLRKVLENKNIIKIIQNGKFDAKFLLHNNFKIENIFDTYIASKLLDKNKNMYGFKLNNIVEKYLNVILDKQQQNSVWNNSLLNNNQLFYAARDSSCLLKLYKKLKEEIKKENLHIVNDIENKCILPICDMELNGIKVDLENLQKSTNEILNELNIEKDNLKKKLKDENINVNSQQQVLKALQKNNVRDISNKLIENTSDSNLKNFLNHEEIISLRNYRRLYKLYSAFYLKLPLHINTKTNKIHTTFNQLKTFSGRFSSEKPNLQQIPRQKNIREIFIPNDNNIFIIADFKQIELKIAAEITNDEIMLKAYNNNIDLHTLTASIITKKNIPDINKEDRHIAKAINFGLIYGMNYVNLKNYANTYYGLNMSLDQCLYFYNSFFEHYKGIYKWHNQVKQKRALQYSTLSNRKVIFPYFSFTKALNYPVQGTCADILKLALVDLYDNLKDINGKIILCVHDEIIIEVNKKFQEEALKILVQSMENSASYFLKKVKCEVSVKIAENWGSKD
- assay.explanation: Fluorescence-based high-throughput DNA polymerase assay (molecular beacon), primary screen and dose-response;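 for % inhibition apPOL 180': test concentration in µM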
- Assay type: biochemical
- recorded.conditions: DRC-2, 180', concentration 40 (unit not given)
outcome.measure: % inhibition apPOL 180' (%)
Supply the numeric figure in %, leaving out any unit text.

{"molecule.smiles": "COc1ccc(-c2c(C(F)(F)F)nn3c(=O)cc(-c4cccc([N+](=O)[O-])c4)[nH]c23)cc1", "% inhibition apPOL 180', %": 75}
{"molecule.smiles": "Cc1ccc(C)c(CSc2nc(C3CCCCC3)c(C#N)c(=O)[nH]2)c1", "% inhibition apPOL 180', %": 80}
{"molecule.smiles": "O=C(Nc1c2c(nn1-c1ccc(Oc3ccccc3)cc1)CSC2)c1ccco1", "% inhibition apPOL 180', %": 69}

Proceed to the following item.
Ask | Give the measured % inhibition apPOL 180' for Cc1cccc(CC(=O)N2CCc3c(nc4cc(-c5ccccc5)[nH]n4c3=O)C2)c1
Reply | 70

---

Overview of recorded % inhibition Apol 40' 5 for various compounds
- assay.target: P. falciparum apicoplast DNA polymerase (Pf-apPOL) (Plasmodium falciparum)
- assay.explanation: Fluorescence-based high-throughput DNA polymerase assay (molecular beacon), primary screen and dose-response
- Type: biochemical
- recorded.conditions: DRC-2; read at 40'; concentration 5
Supply the numeric figure in %, leaving out any unit text.

{"compound": "CC(=O)OCC1=C(C(=O)[O-])N2C(=O)[C@@H](NC(=O)Cc3cccs3)[C@H]2SC1.[Na+] [Molecule 73]", "% inhibition Apol 40' 5 / %": 2}
{"compound": "COc1ccccc1CC(=O)N1CCc2c(nc3cc(-c4ccccc4Cl)[nH]n3c2=O)C1 [Molecule 49]", "% inhibition Apol 40' 5 / %": 20}

Ask | Give the measured % inhibition Apol 40' 5 for CC(C)CC(C(=O)O)N1C(=O)C2C3C=CC(C2C1=O)C1C(=O)N(C(CC(C)C)C(=O)O)C(=O)C31 (centres unmarked) [KU0193449]
Reply | 4.49

Ask | Give the measured % inhibition Apol 40' 5 for O=C1CSC2=NC3=C(CCc4ccccc43)C(c3cccs3)N12 (centres unmarked) [Molecule 59, O=C1CSC2=NC3=C(C(N12)c1cccs1)CCc1c3cccc1]
Reply | 14

Ask | Give the measured % inhibition Apol 40' 5 for Cn1nc(-c2nc(-c3ccccc3)no2)c2c1CCN(C(=O)Cc1cccs1)C2 [Molecule 58]
Reply | 13

Ask | Give the measured % inhibition Apol 40' 5 for COc1ccc(C2CC(c3ccc(Cl)cc3Cl)Nc3nc(N)nn32)cc1OC (centres unmarked) [Molecule 43]
Reply | 29

Ask | Give the measured % inhibition Apol 40' 5 for N#Cc1c(O)nc(N2CCCCC2)nc1-c1ccc2c(c1)OCO2 [KU0083146]
Reply | 28

Ask | Give the measured % inhibition Apol 40' 5 for Cc1ccsc1Cn1c(C)ccc1C [Molecule 70, Cc1ccsc1Cn1c(C)ccc1C]
Reply | 4

Ask | Give the measured % inhibition Apol 40' 5 for Cc1ccc(N2CCC(NC(=O)Cc3cccs3)C2=O)cc1C (centres unmarked) [Molecule 57, O=C(NC1CCN(C1=O)c1ccc(c(c1)C)C)Cc1cccs1]
Reply | 5.58

Ask | Give the measured % inhibition Apol 40' 5 for CCCc1ccc(Oc2coc3cc(OC)ccc3c2=O)cc1 [KU0193249]
Reply | 15

Ask | Give the measured % inhibition Apol 40' 5 for C#CC(C=CC)OC(=O)c1ccccc1C(=O)O (centres unmarked) [Molecule 61, CC=CC(OC(=O)c1ccccc1C(=O)O)C#C]
Reply | 11
